Tested on: HUVEC/MSC spheroids viability
protocol-summary: Human HUVEC/MSC cell line growth inhibition [KRAS2]; active means viability on the fitted dose curve at most 10% of control; inactive means the rest;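 further: percent of DMSO vehicle control luminescence so 100% = untreated viability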
conditions-used: second compound 0.0316 µM; first compound 10 µM
Log the outcome using a class from true (1) = active, false (0) = inactive

compound	answer-label
CC1(C)CCC(CN2CCN(c3ccc(C(=O)NS(=O)(=O)c4ccc(NCC5CCOCC5)c([N+](=O)[O-])c4)c(Oc4cnc5[nH]ccc5c4)c3)CC2)=C(c2ccc(Cl)cc2)C1 + COc1cc2nc(C)nc(NC(C)c3cc(N)cc(C(F)(F)F)c3)c2cc1OC1CCOC1	true (1)
Cn1nccc1Nc1nccc(-c2cc3c(s2)C(C)(C)N(CCN2CCOCC2)C3=O)n1 + CC1OCC2(CCN(c3cnc(Sc4ccnc(N)c4Cl)c(N)n3)CC2)C1N	true (1)
CC(C)NCC(C(=O)N1CCN(c2ncnc3c2C(C)CC3O)CC1)c1ccc(Cl)cc1 (stereo not given) + CC1OCC2(CCN(c3cnc(Sc4ccnc(N)c4Cl)c(N)n3)CC2)C1N	false (0)

// outcome(item) with item = O=C(c1cc(Cc2n[nH]c(=O)c3ccccc23)ccc1F)N1CCN(C(=O)C2CC2)CC1 + C=CC(=O)N1CCN(c2nc(=O)n(-c3c(C)ccnc3C(C)C)c3nc(-c4c(O)cccc4F)c(F)cc23)C(C)C1
false (0)

// outcome(item) with item = COc1cc(Nc2ncc3c(n2)-c2ccc(Cl)cc2C(c2c(F)cccc2OC)=NC3)ccc1C(=O)O + C=CC(=O)N1CCN(c2nc(=O)n(-c3c(C)ccnc3C(C)C)c3nc(-c4c(O)cccc4F)c(F)cc23)C(C)C1
false (0)
